Hello, the source for this data is ChEMBL document CHEMBL3797141, in case you need it.

# Study Target: Tyrosine-protein kinase JAK1 (Homo sapiens, UniProt P23458)
# Sequence (P23458 whole entry): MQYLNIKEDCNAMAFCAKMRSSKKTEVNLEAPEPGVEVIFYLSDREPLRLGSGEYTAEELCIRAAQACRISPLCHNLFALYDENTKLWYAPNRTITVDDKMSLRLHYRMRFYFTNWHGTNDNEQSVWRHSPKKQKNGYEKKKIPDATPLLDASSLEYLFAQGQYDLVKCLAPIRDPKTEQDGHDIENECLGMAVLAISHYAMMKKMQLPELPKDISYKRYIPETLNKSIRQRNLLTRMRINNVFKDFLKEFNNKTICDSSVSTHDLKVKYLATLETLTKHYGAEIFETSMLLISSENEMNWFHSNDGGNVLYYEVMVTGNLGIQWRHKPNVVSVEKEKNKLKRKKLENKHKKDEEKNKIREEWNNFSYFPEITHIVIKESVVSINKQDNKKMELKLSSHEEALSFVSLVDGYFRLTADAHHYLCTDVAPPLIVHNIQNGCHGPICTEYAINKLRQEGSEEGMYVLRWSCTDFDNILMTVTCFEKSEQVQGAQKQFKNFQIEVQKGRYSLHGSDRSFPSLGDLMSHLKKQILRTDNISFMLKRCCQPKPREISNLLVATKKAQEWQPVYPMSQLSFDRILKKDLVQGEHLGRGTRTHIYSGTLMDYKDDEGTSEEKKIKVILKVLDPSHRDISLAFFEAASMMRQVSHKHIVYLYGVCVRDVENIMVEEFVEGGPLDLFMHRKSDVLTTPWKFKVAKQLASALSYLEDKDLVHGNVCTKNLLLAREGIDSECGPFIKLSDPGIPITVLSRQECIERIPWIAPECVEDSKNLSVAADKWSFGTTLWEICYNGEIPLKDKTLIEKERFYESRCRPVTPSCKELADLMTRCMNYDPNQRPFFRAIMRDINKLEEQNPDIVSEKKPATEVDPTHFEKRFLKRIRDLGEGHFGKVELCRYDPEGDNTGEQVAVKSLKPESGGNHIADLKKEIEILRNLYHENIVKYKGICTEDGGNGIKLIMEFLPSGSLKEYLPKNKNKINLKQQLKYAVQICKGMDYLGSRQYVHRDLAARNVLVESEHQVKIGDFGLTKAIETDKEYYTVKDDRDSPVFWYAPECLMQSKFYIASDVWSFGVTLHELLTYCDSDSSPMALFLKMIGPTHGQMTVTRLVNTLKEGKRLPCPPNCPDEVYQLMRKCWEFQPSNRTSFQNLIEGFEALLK

- Compound: "CNc1nc(Nc2cnn(C(CC(N)=O)C3CCCCC3)c2)ncc1C(F)(F)F (stereo unspecified)"
  Study Target: "Tyrosine-protein kinase JAK1 (Homo sapiens, UniProt P23458)"
  IC50: "670 nM"

* * *

# Study Target: Tyrosine-protein kinase JAK2 (Homo sapiens)
# Sequence (O60674 whole entry): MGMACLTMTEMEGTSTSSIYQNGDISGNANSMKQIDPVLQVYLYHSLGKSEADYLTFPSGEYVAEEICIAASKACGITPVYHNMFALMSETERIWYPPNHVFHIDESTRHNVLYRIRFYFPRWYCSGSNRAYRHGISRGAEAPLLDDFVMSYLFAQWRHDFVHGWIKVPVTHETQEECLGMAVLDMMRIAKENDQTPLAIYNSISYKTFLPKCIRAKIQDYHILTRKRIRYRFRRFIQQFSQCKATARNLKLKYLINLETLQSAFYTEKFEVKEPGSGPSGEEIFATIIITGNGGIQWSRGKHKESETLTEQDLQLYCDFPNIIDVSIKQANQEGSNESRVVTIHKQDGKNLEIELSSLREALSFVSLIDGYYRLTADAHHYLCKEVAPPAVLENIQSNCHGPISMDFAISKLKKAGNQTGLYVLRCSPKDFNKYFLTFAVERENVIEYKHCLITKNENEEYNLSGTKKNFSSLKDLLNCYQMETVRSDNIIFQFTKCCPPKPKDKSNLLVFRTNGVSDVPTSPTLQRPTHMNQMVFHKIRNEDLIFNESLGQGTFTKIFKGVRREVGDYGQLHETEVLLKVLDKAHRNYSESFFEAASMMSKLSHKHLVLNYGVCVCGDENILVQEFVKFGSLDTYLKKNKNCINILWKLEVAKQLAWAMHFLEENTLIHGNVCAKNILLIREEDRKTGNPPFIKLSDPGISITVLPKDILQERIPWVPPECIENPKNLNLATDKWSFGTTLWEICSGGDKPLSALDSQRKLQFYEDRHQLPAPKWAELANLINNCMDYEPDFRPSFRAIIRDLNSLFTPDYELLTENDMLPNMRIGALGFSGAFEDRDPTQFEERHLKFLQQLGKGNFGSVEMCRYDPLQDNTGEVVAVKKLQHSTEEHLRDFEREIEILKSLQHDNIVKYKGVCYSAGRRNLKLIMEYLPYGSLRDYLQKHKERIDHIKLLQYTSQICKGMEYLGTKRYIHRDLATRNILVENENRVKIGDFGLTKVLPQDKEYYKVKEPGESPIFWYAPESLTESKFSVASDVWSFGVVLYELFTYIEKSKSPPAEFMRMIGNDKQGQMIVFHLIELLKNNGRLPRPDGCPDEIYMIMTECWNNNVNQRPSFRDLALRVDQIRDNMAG

- Compound: "CNc1nc(Nc2cnn(C(CC(N)=O)C3CCCCC3)c2)ncc1C(F)(F)F (stereo unspecified)"
  IC50 (µM): 0.098

* * *

# Study Target: Tyrosine-protein kinase JAK3 (Homo sapiens, UniProt P52333)
# Sequence (P52333 whole entry): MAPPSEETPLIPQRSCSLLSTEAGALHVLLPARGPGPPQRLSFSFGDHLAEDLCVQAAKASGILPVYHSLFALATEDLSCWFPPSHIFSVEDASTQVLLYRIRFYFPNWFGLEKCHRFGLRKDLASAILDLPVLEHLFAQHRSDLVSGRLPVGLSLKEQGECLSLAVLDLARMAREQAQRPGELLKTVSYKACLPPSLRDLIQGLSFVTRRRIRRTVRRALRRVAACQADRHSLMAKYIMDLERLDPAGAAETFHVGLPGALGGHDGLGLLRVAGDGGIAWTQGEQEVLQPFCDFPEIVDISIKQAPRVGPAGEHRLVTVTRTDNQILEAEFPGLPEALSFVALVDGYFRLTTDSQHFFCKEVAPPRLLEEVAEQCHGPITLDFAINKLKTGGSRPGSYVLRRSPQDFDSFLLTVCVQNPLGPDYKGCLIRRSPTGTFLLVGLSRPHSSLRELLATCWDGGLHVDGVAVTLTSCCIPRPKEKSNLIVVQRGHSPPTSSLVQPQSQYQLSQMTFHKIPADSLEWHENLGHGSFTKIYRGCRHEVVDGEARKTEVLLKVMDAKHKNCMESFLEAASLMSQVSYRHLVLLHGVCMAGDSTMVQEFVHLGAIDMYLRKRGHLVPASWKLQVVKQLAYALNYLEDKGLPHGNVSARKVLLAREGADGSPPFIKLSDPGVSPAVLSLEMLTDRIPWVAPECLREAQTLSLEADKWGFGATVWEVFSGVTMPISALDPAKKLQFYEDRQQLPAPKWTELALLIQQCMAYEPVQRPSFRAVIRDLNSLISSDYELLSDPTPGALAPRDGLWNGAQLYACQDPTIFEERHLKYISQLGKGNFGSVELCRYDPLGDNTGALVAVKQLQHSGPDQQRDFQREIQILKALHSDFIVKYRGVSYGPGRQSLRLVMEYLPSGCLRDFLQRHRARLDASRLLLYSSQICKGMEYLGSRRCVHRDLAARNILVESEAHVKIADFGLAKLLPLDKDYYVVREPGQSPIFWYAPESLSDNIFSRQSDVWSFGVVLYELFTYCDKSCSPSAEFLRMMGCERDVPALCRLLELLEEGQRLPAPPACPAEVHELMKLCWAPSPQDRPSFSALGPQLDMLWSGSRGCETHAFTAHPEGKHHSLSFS
Quantity Name: IC50

- Compound: "CNc1nc(Nc2cnn(C(CC(N)=O)C3CCCCC3)c2)ncc1C(F)(F)F (stereo unspecified)"
  Reported Value: "39 nM"
